- tested.on: Cathepsin B (Homo sapiens, UniProt P07858)
- procedure.details: Inhibition of human liver cathepsin B using Z-Arg-Arg-AMC as substrate preincubated for 15 mins followed by substrate addition and measured after 30 mins by fluorometric method
observation.type: IC50
Write the quantity with the unit trailing the number.

Please fill in: IC50 reported for `CN1CCN(C(=O)N[C@@H](Cc2ccccc2)C(=O)N[C@H](/C=C/S(=O)(=O)c2ccccc2)c2ccc(-c3ccccc3)cc2)CC1` = 300 nM

====

- tested.on: Cathepsin B (Homo sapiens, UniProt P07858)
- procedure.details: Inhibition of cathepsin B (unknown origin) assessed as reduction in 7-amino-4-methylcoumarin formation using Z-Arg-Arg-MCA as substrate preincubated for 3 mins followed by substrate addition and measured after 10 mins by fluorescence spectrometric method
observation.type: IC50 (nM)
Give bare numbers, in nM.

Recorded IC50 for `CCOC(=O)[C@H]1O[C@@H]1C(=O)N[C@H](C(=O)N1CCC[C@H]1C(=O)O)[C@@H](C)CC` on Cathepsin B (Homo sapiens, UniProt P07858) was 2.28

====

- tested.on: Cathepsin B (Homo sapiens)
- procedure.details: Inhibition of recombinant human cathepsin B expressed in baculovirus expression system using Z-Arg-Arg-AMC as substrate incubated for 20 mins by fluorescence based assay
pIC50: −log10 of the molar value.
observation.type: pIC50

Please fill in: pIC50 reported for `CCCCC(=O)N[C@@H](Cc1cccc(C)c1)C(=O)N[C@H](C#N)COCc1cccc(C(=O)O)c1` = > 8.00

Batch request: pIC50 per item, same order as input.
1. Cc1cccc(C[C@H](NC(=O)c2ccc(Cl)cc2F)C(=O)N[C@H](C#N)COCc2cccc(C(=O)O)c2)c1
2. Cc1cccc(C[C@H](NC(=O)c2ccccc2)C(=O)N[C@H](C#N)COCc2cccc(C(=O)O)c2)c1

["> 8.00", "> 8.00"]

====

Parameter pKi, tested on Cathepsin B (Homo sapiens, UniProt P07858), listed per item.
Numbers only, as −log10 of the molar value.

Please fill in: pKi reported for CC(C)CC(NC(=O)c1ccc(-c2ccc(-c3ccccc3)cc2)cc1)C(=O)N(C)N(C)C#N (racemic) = 9.16

Turning to the following compound.
Please fill in: pKi reported for CC(C)CC(NC(=O)c1ccc(Br)cc1)C(=O)N(C)N(C)C#N (racemic) = 8.70

====

- tested.on: Cathepsin B (Homo sapiens, UniProt P07858)
- procedure.details: Inhibition of human cathepsin B assessed as ratio of Kinact to Ki using Z-Phe-Arg-NH-Mec as substrate incubated for 15 to 90 mins by fluorometric method
*1 amine or outer side, *2 acyl side, *3 side chain or, on linkers, in order; H or OH if unused. Where a SMILES comes first, the peptide text is derived from it. [ ]: non-standard residue; d: D form. The star is where a group is joined. X1 = CC(C)C[C@H](N[*:1])C(=O)NC(=O)[C@H]1O[C@@H]1C(=O)[*:2]; N(6-aminohexyl)Gly = O=C(CN(CCCCCCN[*:3])[*:1])[*:2]; Biotin = O=C1N[C@H]2[C@H](CS[C@H]2CCCCC(=O)*)N1
For each entry below, report its Ratio value.
One number for each entry, in M⁻¹ s⁻¹.

Recorded Ratio, per entry:
Please fill in: Ratio reported for `CCOC(=O)[C@H]1O[C@@H]1C(=O)N[C@@H](CC(C)C)C(=O)N1CCC[C@H]1C(=O)O` = 44400

Please fill in: Ratio reported for `CCCNC(=O)[C@H]1O[C@@H]1C(=O)N[C@@H](CC(C)C)C(=O)N1CCC[C@H]1C(=O)O` = 152000

Please fill in: Ratio reported for `CCOC(=O)[C@@H]1O[C@H]1C(=O)N[C@@H](CC(C)C)C(=O)N1CCC[C@H]1C(=O)O` = 567000

Please fill in: Ratio reported for `COC(=O)CNC(=O)CNC(=O)[C@H](CC(C)C)NC(=O)[C@H]1O[C@@H]1C(=O)N[C@@H](CC(C)C)C(=O)N1CCC[C@H]1C(=O)O` = 1.52e+06

Please fill in: Ratio reported for `CCCNC(=O)[C@@H]1O[C@H]1C(=O)N[C@@H](CC(C)C)C(=O)N1CCC[C@H]1C(=O)O` = 29400

Turning to the following compound.
Please fill in: Ratio reported for CC(C)C[C@H](NC(=O)CNC(=O)CNCCCCCCNC(=O)CCCC[C@@H]1SC[C@@H]2NC(=O)N[C@@H]21)C(=O)NC(=O)[C@H]1O[C@@H]1C(=O)N[C@@H](CC(C)C)C(=O)N1CCC[C@H]1C(=O)O (H-[N(6-aminohexyl)Gly](Biotin)G[X1]LP-OH) = 1.6e+06
